Source: PubChem BioAssay

# Tested on: PRMT1 (protein arginine N-methyltransferase 1)
# PROCEDURE_SUMMARY: PRMT1 binders on small-molecule microarrays, primary screen, biochemical, small-molecule microarray, 635 nm fluorescence (AID 1088);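 note: binding of Prmt1 protein to compounds spotted on small-molecule microarray slides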
# TEST_PARAMETERS: small-molecule microarray binding, higher = more signal
OBSERVED_PROPERTY: composite z-score
The answer should be written as a number, with no unit following it.

Exercise: Recorded composite z-score for C=CCN1C(=O)[C@]2(O[C@H](CCn3cc([C@H](O)c4ccccc4)nn3)[C@@H]([Si](C)(C)c3ccc(OC)cc3)[C@@H]2C)c2cc(N3CCC3=O)ccc21 with PRMT1 (protein arginine N-methyltransferase 1), please?
Solution: 0.942

Exercise: Repeat with COc1cc2c(cc1OC)CN(C(=O)[C@H]1[C@@H]3C(=O)O[C@@H](c4ccccc4)[C@@H](c4ccccc4)N3[C@@H](c3ccc(O)cc3)[C@]13C(=O)Nc1ccc(C#CCCO)cc13)CC2
Solution: 1.56

Exercise: Repeat with CO[C@H]1O[C@H](CO)[C@@H](OC(=O)Nc2ccc(Oc3ccccc3)cc2)[C@H](OC(=O)Nc2ccc3c(c2)OCO3)[C@H]1OC(=O)Nc1ccc2c(c1)OCO2
Solution: 1.53

Exercise: Repeat with Cc1ccc(S[C@]2(C(=O)NCCCN(C)C)CC(=O)N(Cc3ccccc3C(F)(F)F)[C@@H]2c2ccc(CO)cc2)cc1
Solution: 0.486

Exercise: Repeat with COc1ccc([Si](C)(C)[C@@H]2[C@@H](CC(=O)N3CCC[C@H]3CO)O[C@]3(C(=O)N(c4ccccc4)c4ccccc43)[C@H]2C)cc1
Solution: 1.54

Exercise: Repeat with CC(C)C(O)C1C=CC2C(=O)NC(=O)C2N1Nc1ccc(Cl)cc1Cl (configuration not stated)
Solution: 0.119

Exercise: Repeat with CCCC[C@@H]1C[C@H]1[C@@H](NC(=O)c1cccs1)c1ccc(-c2ccccc2)cc1
Solution: 0.464

====

# Test system: XIP peptide (Xip251-270)
# PROCEDURE_SUMMARY: small-molecule binders of XIP peptide, primary screen, biochemical, small-molecule microarray, fluorescence 635/667 nm, 0.5 µg/mL protein (AID 1183)
# TEST_PARAMETERS: small-molecule microarray binding, fluorescence 635 nm; higher = more signal
OBSERVED_PROPERTY: composite z-score

Exercise: Would you mind telling me what composite z-score value was observed for CC(CO)N1C(=O)[C@@H]2C3C(=O)OCCC/C=C\[C@H]3OC23C=CCN(C(C)(C)C)C(=O)[C@@H]13 (some centres undefined) ?
Solution: -0.0516

Exercise: Repeat with NCCCCCCNC(=O)[C@@H]1C[C@@H]2C(=O)NCC(=O)N2[C@@H]1c1ccc(O)cc1
Solution: 0.755

Exercise: Repeat with CCCCC(CC)C(O)C1C=CC2C(=O)N(Cc3ccccc3)C(=O)C2N1n1cnnc1 (centres undefined)
Solution: 0.671

Exercise: Repeat with COc1ccc(C#Cc2ccc3c(c2)[C@]2(C(=O)N3)[C@H](c3ccccc3OCCO)N3[C@H](c4ccccc4)[C@H](c4ccccc4)OC(=O)[C@H]3[C@@H]2C(=O)Nc2nc3ccccc3s2)cc1
Solution: 0.68

====

Give measured composite z-score for each item. Keep answers brief.
# TARGET_OF_ASSAY: Fibroblast growth factor 10 (Homo sapiens)
# PROCEDURE_SUMMARY: FGF10 binders on small-molecule microarrays, primary screen, biochemical, small-molecule microarray, 635 nm fluorescence (AID 1102)
# TEST_PARAMETERS: FGF10 binding, fluorescence 635 nm, higher = more signal
The answer should be written as a number, with no unit following it.

Exercise: Would you mind telling me what composite z-score value was observed for CN1C(=O)C2C=CC(C(O)C3CC=CCC3)N(N(c3ccccc3)c3ccccc3)C2C1=O (stereo not drawn) ?
Solution: -0.291

Exercise: Repeat with O=C1O[C@@H](c2ccccc2)[C@@H](c2ccccc2)N2[C@@H](c3ccccc3OCCO)[C@]3(C(=O)Nc4ccc(C#CC5=CCCCC5)cc43)[C@@H](C(=O)N3CCCCCCC3)[C@H]12
Solution: 1.54

Exercise: Repeat with Cc1ccc(S[C@]2(C(=O)NCCCN(C)C)CC(=O)N(Cc3cc(C(F)(F)F)cc(C(F)(F)F)c3)[C@@H]2c2ccc(CO)cc2)cc1
Solution: -1.11

Exercise: Repeat with CO[C@H]1O[C@H](CO)[C@@H](OC(=O)Nc2ccccc2)[C@H](OC(=O)Nc2ccccc2)[C@@H]1OC(=O)Nc1ccccc1
Solution: 1.44

Exercise: Repeat with CCOC(=O)C[C@H]1[C@H](OC(=O)c2ccc(C(=O)c3ccccc3)cc2)[C@@H](NC(=O)c2ccccc2)c2cc(OCCCO)ccc2N1C(=O)c1ccc2ccccc2n1
Solution: -0.286

Exercise: Repeat with C=C[C@H](C)[C@@H](OC(=O)Nc1ccc(OC)cc1)c1ccc(O)c2ccccc12
Solution: -0.117

Exercise: Repeat with C=C(COC)C(=O)CC[C@@H](OC(C)=O)c1ccc(CO)o1
Solution: 1.24

Exercise: Repeat with CC(C)(C)OC(=O)CC[C@]1(C(=O)N2CCOCC2)N=C(c2ccc(OCCCO)cc2)O[C@H]1c1ccccc1N=[N+]=[N-]
Solution: 1.18

====

# PROCEDURE_SUMMARY: PSAC antagonists in infected red cells, primary screen, cell-based, P. falciparum Indochina, OD700, 1 h (AID 1154)
# TEST_PARAMETERS: P. falciparum Indochina infected RBC osmotic lysis, called active from +8 up or from −8 down
Activity calls are given as the source filed them.
In this exercise, the only acceptable responses are class 1 = active, class 0 = inactive

Exercise: Would you mind telling me which call this test gave COC(=O)[C@@]1(Cc2ccc(F)cc2)[C@H]2c3cc(C(=O)N(C)C)n(Cc4cc(F)c(F)c(F)c4)c3C[C@H]2CN1C(=O)c1ccccc1 ?
Solution: class 0

Exercise: Repeat with O=C1NC(=O)C2C1C=CC(C(O)c1cc(C(F)(F)F)cc(C(F)(F)F)c1)N2Nc1ccccn1 (centres undefined)
Solution: class 0

Exercise: Repeat with Cc1ccccc1C(O)C1C=CC2C(=O)N(c3ccccc3)C(=O)C2N1Nc1ccc(C(C)C)cc1 (centres undefined)
Solution: class 0

Exercise: Repeat with COCCCNC(=O)[C@]1(CCC(=O)OC(C)(C)C)N=C(c2ccc(OCCCO)cc2)O[C@@H]1c1ccccc1CN=[N+]=[N-]
Solution: class 1

====

# PROCEDURE_SUMMARY: PSAC antagonists in infected red cells, primary screen, cell-based, P. falciparum Indochina, OD700, 18 h (AID 1157)
# TEST_PARAMETERS: P. falciparum Indochina infected erythrocytes, osmotic lysis OD700, 18 h; higher = more signal, called active from +8 up or from −8 down
OBSERVED_PROPERTY: z-score
The answer should be written as a number, with no unit following it.

Exercise: Would you mind telling me what z-score value was observed for [N-]=[N+]=NCc1ccccc1[C@@H]1OC(c2ccc(OCCCO)cc2)=N[C@]1(Cc1ccccc1)C(=O)NCC(O)CO (stereo partly drawn) ?
Solution: 0.123

Exercise: Repeat with COC(=O)[C@H](Cc1ccccc1)N1CC2=C[C@@H](C3CC3)n3c(=O)n(C)c(=O)n3[C@H]2[C@@H]1[C@@H](O)Cc1ccccc1
Solution: 1.58

Exercise: Repeat with C=CC[C@@]12N=C(c3ccc(OCCCO)cc3)O[C@@H]1c1ccccc1N(C)C2=O
Solution: 3.46

Exercise: Repeat with COCCOC(=O)N1C(=O)[C@@]2(c3cc(C#CCNC(N)=O)ccc31)[C@H](C(=O)N1CCN(c3ncccn3)CC1)[C@H]1C(=O)O[C@H](c3ccccc3)[C@H](c3ccccc3)N1[C@@H]2c1ccc(OCCO)cc1
Solution: 0.778

Exercise: Repeat with CC(C)C(=C=CC[C@H](O)c1ccc(OCCO)cc1)CCO
Solution: 0.553

Exercise: Repeat with COC(=O)c1c(CC[C@@H](CO)NC(=O)NCCn2cc(C3(O)CCCC3)nn2)oc(C(C)=O)c1C(=O)OC
Solution: 0.533

Exercise: Repeat with C=CCNC(=O)[C@@H]1[C@H]2C(=O)O[C@H](c3ccccc3)[C@H](c3ccccc3)N2[C@H](c2ccc(O)cc2)[C@@]12C(=O)Nc1ccc(C#CCNC(N)=O)cc12
Solution: 0.32

Exercise: Repeat with CCOC(=O)C[C@H]1[C@H](OC(=O)c2ccc(C(=O)c3ccccc3)cc2)[C@@H](NC(=O)c2ccc3ccccc3n2)c2cc(OCCCO)ccc2N1C(=O)c1ccccc1
Solution: -0.232

Exercise: Repeat with COCCCNC(=O)[C@@H]1c2ccccc2C(=O)N(Cc2ccccc2Cl)[C@H]1c1ccc(CO)cc1
Solution: 0.11

Exercise: Repeat with CO[C@H]1O[C@H](CO)[C@@H](OC(=O)Nc2ccc(Oc3ccccc3)cc2)[C@H](OC(=O)Nc2ccc3c(c2)OCO3)[C@H]1OC(=O)Nc1ccc2c(c1)OCO2
Solution: 0.397

Exercise: Repeat with CCOC(=O)C[C@H]1[C@H](OC(=O)c2ccc(C(=O)c3ccccc3)cc2)[C@@H](NC(=O)c2ccccc2)c2cc(OCCCO)ccc2N1C(=O)Cc1ccc(OC)cc1
Solution: 0.259

Exercise: Repeat with COC(=O)[C@@]1(Cc2ccc(OC)cc2)[C@H]2c3cc(C(=O)N(C)C)n(C)c3C[C@H]2CN1C(=O)c1ccccc1
Solution: 1.16

Exercise: Repeat with CC(C)NC(=O)[C@@H]1c2ccccc2C(=O)N(C2Cc3ccccc3C2)[C@H]1c1ccc(CO)cc1
Solution: 0.182

Exercise: Repeat with CC(=O)n1cc(C(O)C2C=CC3C(=O)N(c4ccccc4)C(=O)C3N2Nc2ccc([N+](=O)[O-])cc2)c2ccccc21 (stereo not drawn)
Solution: 0.954

Exercise: Repeat with CC1(C)[C@@H]2CC(C(O)C3C=CC4C(=O)N(c5ccccc5)C(=O)C4N3Nc3ccc([N+](=O)[O-])cc3)=C[C@H]1C2 (stereo partly drawn)
Solution: 1.56

Exercise: Repeat with COCCOC(=O)N1C(=O)[C@@]2(c3cc(C#CC4(O)CCCCCC4)ccc31)[C@H](c1ccccc1OCCO)N1[C@H](c3ccccc3)[C@H](c3ccccc3)OC(=O)[C@H]1[C@@H]2C(=O)N1CCN(c2ncccn2)CC1
Solution: 0.712

Exercise: Repeat with O=C(c1ccccc1)N1Cc2ccccc2C[C@@]2(COC(c3ccc(OCCCO)cc3)=N2)C1=O
Solution: 0.498

Exercise: Repeat with CCC(CC)C(O)C1C=CC2C(=O)NC(=O)C2N1Nc1ccccn1 (stereo not drawn)
Solution: 0.973

Exercise: Repeat with COCCOC(=O)N1C(=O)[C@@]2(c3cc(C#Cc4ccc(OC)cc4)ccc31)[C@H](c1ccc(OCCO)cc1)N1[C@H](c3ccccc3)[C@H](c3ccccc3)OC(=O)[C@H]1[C@@H]2C(=O)N1CCN(c2ncccn2)CC1
Solution: 1.17

Exercise: Repeat with C=CCC(OC(C)=O)[C@@H]1[C@@H](N(Cc2ccc(-c3ccccc3)cc2)C(=O)c2ccc(-c3ccccc3)cc2)c2cc(OCCCO)ccc2N1C(=O)Cc1ccc2ccccc2c1 (stereo partly drawn)
Solution: 0.408

Exercise: Repeat with O=C(CS)NCCCCCCNC(=O)[C@@H]1C[C@@H]2C(=O)N[C@@H](Cc3ccccc3)C(=O)N2[C@@H]1c1cccc(OCCO)c1
Solution: 0.0799

Exercise: Repeat with NC(=O)NCC#Cc1ccc2c(c1)[C@]1(C(=O)N2)[C@H](c2ccc(O)cc2)N2[C@H](c3ccccc3)[C@H](c3ccccc3)OC(=O)[C@H]2[C@@H]1C(=O)O
Solution: 0.485

Exercise: Repeat with CO[C@H]1O[C@H](CO)[C@@H](OC(=O)Nc2cccc(F)c2)[C@H](OC(=O)Nc2ccccc2)[C@@H]1OC(=O)Nc1ccccc1
Solution: 1.4

Exercise: Repeat with COC(=O)[C@@]1(CCS(=O)(=O)c2ccccc2)N=C(c2ccc(OCCCO)cc2)O[C@H]1c1ccccc1CN=[N+]=[N-]
Solution: 1.33

Exercise: Repeat with C=C(C)[C@@H]1CC=C(C(O)C2C=CC3C(=O)N(C)C(=O)C3N2Nc2ccccc2)CC1 (stereo partly drawn)
Solution: 1.59

Exercise: Repeat with O=C1C2C=CC(C(O)CCc3ccccc3)N(Nc3ccccc3F)C2C(=O)N1c1ccccc1 (stereo not drawn)
Solution: 0.807

Exercise: Repeat with CCCCCCc1nc(-c2ccc(OC)nc2)cc2c1[Si](C(C)C)(C(C)C)O[C@H]2c1ccccc1
Solution: -0.353

Exercise: Repeat with C=CC1(C(=O)OC)CC=C(C(=O)OC)CC1 (stereo not drawn)
Solution: -1.96
